Tested on: Culex pipiens pallens
test.details: Insecticidal activity against Culex pipiens pallens (mosquito) fourth-instar larvae assessed as insect mortality measured 24 hr post compound exposure by dipping method
Assay type: functional
setup.conditions: Culex pipiens, 24 h
Exercise: for every item that follows, state its recorded LC50.
Numbers only, in µg/mL.

INSERT INTO results (molecule, assay_value) VALUES
  ('C=CCC1=C(C)C(COC(=O)C[C@H]2[C@@H](/C=C/Br)C2(C)C)CC1=O (relative stereo)', 0.44);

Look up LC50 for the entries below, preserving their order.
1. CC1(C)[C@H](/C=C/Cl)[C@H]1CC(=O)OCc1c(F)c(F)cc(F)c1F (relative stereo)
2. CC1(C)[C@H](C(=O)O[C@H](C#N)c2cccc(Oc3ccccc3)c2)[C@@H]1C=C(Br)Br [DELTAMETHRIN]
3. CC1(C)C(C=C(Cl)Cl)C1C(=O)OC(C#N)c1cccc(Oc2ccccc2)c1 (stereo not drawn) [ALPHA-CYPERMETHRIN]

## Output
1: 0.249; 2: 0.0012; 3: 0.0106
